The reported measurements were obtained from patent US10981932B2.

# Tested on: SUDHL10
# method: Induction of cytotoxicity (CellTiter-Glo, 5 h), SUDHL10
# assay context: read-out: Cytotox SUDHL10 [M] (median); SUDHL10 cells, cytotoxicity induction, CellTiter-Glo, 5 h incubation, median
readout kind: log10(IC50) (log10 of the value in M)
Please note: log10 values; quantity IC50; unit M.

[[record]]
molecule = "CN1CCCn2c(C(=O)O)c(CCCOc3cccc4ccccc34)c3cccc(c32)-c2c(COc3ccc(N4CCN(S(=O)(=O)N(C)C)CC4)cc3)nn(C)c2C1 (single isomer, unassigned; enantiomer 1) [Example 1-15]"
readout_number = -5.71

[[record]]
molecule = "Cn1ccnc1COCc1nn(C)c2c1-c1cccc3c(CCCOc4cccc5ccccc45)c(C(=O)O)n(c13)CCCCOC2 (single isomer, unassigned) [Example 232]"
readout_number = -4.88

[[record]]
molecule = "CN(C)S(=O)(=O)N1CCN(c2ccc(OCc3nn(C)c4c3-c3cccc5c(CCCOc6cccc7ccccc67)c(C(=O)O)n(c35)CCCCOC4)cc2)CC1 (single isomer, unassigned; enantiomer 1) [Example 1-19]"
readout_number = -4.60

[[record]]
molecule = "Cn1nc(COc2ccc(N3CCN(S(C)(=O)=O)CC3)cc2)c2c1COCCCCn1c(C(=O)O)c(CCCOc3cccc4ccccc34)c3cccc-2c31 (single isomer, unassigned; enantiomer 1) [Example 1-9]"
readout_number = -5.04


Let us examine a further case.
Query string: Please report log10(IC50) for the following molecule: CN(C)S(=O)(=O)N1CCN(c2ccc(OCc3nn(C)c4c3-c3cccc5c(CCCOc6cccc7ccccc67)c(C(=O)O)n(c35)CCCCCC4)cc2)CC1 (single isomer, unassigned; enantiomer 2) [Example 1-41]
Result string: -5.82

###

# System: SUDHL5
# method: Anti-proliferative effect (CellTiter-Glo, 72 h), SUDHL5
# Type: cell-based
# assay context: Homo sapiens, SU-DHL-5, 72 h, SUDHL5 cells, antiproliferation, 72 h incubation, median, read-out: Antiproli SUDHL5 [M] (median)
readout kind: IC50 (M)
Answer in M, number only, no unit symbol.

Here are 2 compounds together with their reported answers.
[[record]]
compound = "COCCn1nc2c(c1C)-c1cccc3c(CCCOc4cccc5ccccc45)c(C(=O)O)n(c13)C/C=C\\COC2 (racemic)"
system_under_test = "SUDHL5"
readout_kind = "IC50"
readout_number = "6.23e-06"

[[record]]
compound = "CN1CCCn2c(C(=O)O)c(CCCOc3cccc4ccccc34)c3cccc(c32)-c2c(COc3ccc(C4CCOCC4)cc3)nn(C)c2C1 (single isomer, unassigned)"
system_under_test = "SUDHL5"
readout_kind = "IC50"
readout_number = "1.17e-05"


Let us examine a further case.
Query string: Please report IC50 for the following compound: Cn1nc(C(F)(F)F)c2c1COCCCCn1c(C(=O)O)c(CCCOc3cccc4ccccc34)c3cccc-2c31 (racemic)
Result string: 1.27e-05

###

# System: SUDHL10
# method: Induction of cytotoxicity (CellTiter-Glo, 5 h), SUDHL10
# assay context: read-out: Cytotox SUDHL10 [M] (median); SUDHL10 cells, cytotoxicity induction, CellTiter-Glo, 5 h incubation, median
readout kind: IC50 (M)
Answer in M, number only, no unit symbol.

[[record]]
compound = "Cc1nn(C)c2c1-c1cccc3c(CCCOc4cccc5cc(Cl)ccc45)c(C(=O)O)n(c13)CCCCOC2 (single isomer, unassigned; enantiomer 2) [Example 042]"
readout_kind = "IC50"
readout_number = "3e-05"


Let us examine a further case.
Query string: Please report IC50 for the following compound: COCC(=O)N1CCN(c2ccc(OCc3nn(C)c4c3-c3cccc5c(CCCOc6cccc7ccccc67)c(C(=O)O)n(c35)CCCCOC4)cc2)CC1 (single isomer, unassigned; enantiomer 2) [Example 1-29]
Result string: 6.87e-06

###

# system under test: MCL-1 (Homo sapiens)
# Sequence (Q07820 whole entry): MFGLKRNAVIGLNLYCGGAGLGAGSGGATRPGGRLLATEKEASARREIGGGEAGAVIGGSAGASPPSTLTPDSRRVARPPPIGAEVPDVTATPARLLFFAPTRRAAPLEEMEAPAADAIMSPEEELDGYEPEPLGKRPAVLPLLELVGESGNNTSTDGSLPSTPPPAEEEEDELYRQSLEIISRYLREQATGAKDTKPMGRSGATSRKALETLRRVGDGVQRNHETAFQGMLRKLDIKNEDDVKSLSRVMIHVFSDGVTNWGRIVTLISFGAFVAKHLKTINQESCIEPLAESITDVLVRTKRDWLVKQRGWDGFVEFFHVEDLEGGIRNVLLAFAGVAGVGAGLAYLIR
# method: Protein-protein interaction assay MCL-1/Noxa BH3 peptide (MCL-1 assay), TR-FRET
# Format: binding
# assay context: MBP-MCL-1 / Noxa BH3-derived peptide, median
# Description: Protein-Protein Interaction Assay: MCL-1/Noxa BH3 Peptide (MCL-1 Assay) […] In the assay 11 different concentrations of each compound (0.1 nM, 0.33 nM, 1.1 nM, 3.8 nM, 13 nM, 44 nM, 0.15 μM, 0.51 μM, 1.7 μM, 5.9 μM and 20 μM) were typically measured as duplicates in the same microtiter plate. For that, 100-fold concentrated DMSO solutions were prepared by serial dilutions (1:3.4) of a 2 mM stock solution in a clear, 384-well microtiter plate (Greiner Bio-One, Frickenhausen, Germany). […]
readout kind: IC50 (nM)
Answer in nM, number only, no unit symbol.

Here are 2 compounds together with their reported answers.
[[record]]
compound = "CN1CCCn2c(C(=O)O)c(CCCOc3cccc4ccccc34)c3cccc(c32)-c2c(COc3ccc(N4CCN(S(C)(=O)=O)CC4)cc3)nn(C)c2C1 (single isomer, unassigned) [Example 1-47]"
system_under_test = "MCL-1 (Homo sapiens)"
readout_number = 19.3

[[record]]
compound = "CN1CCCn2c(C(=O)O)c(CCCOc3cccc4ccccc34)c3cccc(c32)-c2c(COCc3ccccc3)nn(C)c2C1 (racemic) [Example 1-93]"
system_under_test = "MCL-1 (Homo sapiens)"
readout_number = 74.9


Let us examine a further case.
Query string: Please report IC50 for the following compound: Cc1nn(C)c2c1-c1cccc3c(CCCOc4cccc5ccccc45)c(C(=O)O)n(c13)CCCN(C)C2 (racemic) [Example 1-30]
Result string: 6.52

###

# Tested on: SUDHL10
# method: Induction of caspase-3/7 activity (Caspase-Glo 3/7), SUDHL10
# Assay type: cell-based
# assay context: Homo sapiens, SU-DHL10, 3 h, caspase-3/7 induction, SUDHL10 cells, 3 h treatment; median
readout kind: EC50

Here are 5 compounds together with their reported answers.
[[record]]
compound = "COc1cc2cc(c1)-c1cccc3c(CCCOc4cccc5c4CCCC5)c(C(=O)O)n(c13)CCCCCO2 (racemic) [Example 116]"
readout_kind = "EC50"
result = "> 33 µM"

[[record]]
compound = "Cn1nc(CCN2CCOCC2)c2c1COCCCCn1c(C(=O)O)c(CCCOc3cccc4ccccc34)c3cccc-2c31 (single isomer, unassigned; enantiomer 1) [Example 151]"
readout_kind = "EC50"
result = "> 33 µM"

[[record]]
compound = "Cn1nc(COc2ccc(N3CCN(C(=O)OC(C)(C)C)CC3)cc2)c2c1COCCCCn1c(C(=O)O)c(CCCOc3cccc4ccccc34)c3cccc-2c31 (racemic) [Example 1-6]"
readout_kind = "EC50"
result = "11.9 µM"

[[record]]
compound = "Cc1nn(C)c2c1-c1cccc3c(CCCOc4cccc5ccccc45)c(C(=O)O)n(c13)CCCCOCC2 (racemic) [Example 017]"
readout_kind = "EC50"
result = "> 33 µM"

[[record]]
compound = "Cn1nc(CN)c2c1COCCCCn1c(C(=O)O)c(CCCOc3cccc4ccccc34)c3cccc-2c31 (racemic) [Example 338]"
readout_kind = "EC50"
result = "> 33 µM"


Query string: Please report EC50 for the following compound: Cn1ccnc1COCc1nn(C)c2c1-c1cccc3c(CCCOc4cccc5ccccc45)c(C(=O)O)n(c13)CCCCOC2 (racemic) [Example 231]
Result string: 16.1 µM

###

In this section, each of the molecules is paired with its reported IC50.
# system under test: MCL-1 (Homo sapiens)
# method: Protein-protein interaction assay MCL-1/Noxa BH3 peptide (MCL-1 assay), TR-FRET
# Type: binding
# assay context: MBP-MCL-1 / Noxa BH3-derived peptide, median
Answer in nM, number only, no unit symbol.

[[record]]
molecule = "CN1CCCn2c(C(=O)O)c(CCCOc3cccc4ccccc34)c3cccc(c32)-c2c(COc3ccc(N4CCN(S(C)(=O)=O)CC4)cc3)nn(C)c2C1 (single isomer, unassigned; enantiomer 1) [Example 1-46]"
readout_kind = "IC50"
value_units = "nM"
readout_number = 1.43

[[record]]
molecule = "Cc1nn(C)c2c1-c1cccc3c(CCCOc4ccccc4)c(C(=O)O)n(c13)CCCCOC2 (racemic)"
readout_kind = "IC50"
value_units = "nM"
readout_number = 495

[[record]]
molecule = "Cc1ccc2c(CCCOc3cccc4ccccc34)c(C(=O)O)n3c2c1-c1c(C)nn(C)c1COCCC3 (single isomer, unassigned; enantiomer 1) [Example 025]"
readout_kind = "IC50"
value_units = "nM"
readout_number = 1.84

[[record]]
molecule = "CCc1c2c(nn1CCN1CCOCC1)COCCCCn1c(C(=O)O)c(CCCOc3cccc4ccccc34)c3ccc(C)c-2c31 (racemic) [Example 204]"
readout_kind = "IC50"
value_units = "nM"
readout_number = 3.75


Let us examine a further case.
Query string: Please report IC50 for the following molecule: Cn1nc(COc2ccc(N3CCN(C(=O)C4CC4)CC3)cc2)c2c1COCCCCn1c(C(=O)O)c(CCCOc3cccc4ccccc34)c3cccc-2c31 (single isomer, unassigned; enantiomer 1) [Example 1-22]
Result string: 0.787
